system.name: T1, hCD47-ECD/Fc protein (Sinobiological) (human, UniProt Q08722 19-139, biotinylated in the Octet assay, sites not stated)
T1 construct: extracellular domain; Bought protein; also called human CD47-Fc antigen; recombinant hCD47-ECD/Fc; not shown: Fc part of the bought fusion protein
assay.info: ELISA, coated hCD47-ECD/Fc
result.type: pEC50
Remember, pEC50 is on a log scale: it is -log10 of the molar concentration.

Task: Report pEC50 for TY25038 (antibody, V domains shown) VH: QVQLVQSGAEVKKPGSSVKVSCKASGFTFSRYAIHWVRQAPGQGLEWLGGIIPVFGTANYAQKFQGRVTITADKSTSTAYMELSSLRSEDTAVYYCARQGILGGFAYWGQGTLVTVSS VL: DIQLTQSPSSLSASVGDRVTITCRASESVDFHGKSFLAWYQQKPGKAPKLLIYAASSLQSGVPSRFSGSGSGTDFTLTISSLQPEDFATYYCQQYLELPFTFGQGTKVEIKR please.
Result: 9.11

Task: Field request: pEC50 | item: TY25031 (antibody, V domains shown) VH: EVQLVESGGGLVQPGGSLRLSCAASGYSITSGYHWGWIRQAPGKGLEWIGRIYPSSGSTKYAQKFQGRVTISRDNSKNTLYLQLNSLRAEDTAVYYCARGVRGSYGWFDVWGQGTLVTVSS VL: DIQLTQSPSSLSASVGDRVTITCSASSRVSYVYWYQQKPGKAPKLLIYAASTLQSGVPSRFSGSGSGTDFTLTISSLQPEDFATYYCQHYVSSPRVYTFGQGTKVEIKR
Result: 9.23

Task: # input binder: TY25041 (antibody, V domains shown) VH: QVQLVQSGAEVKKPGSSVKVSCKASGYSISSGHHWNWIRQAPGQGLEWIGAISYSGSTYYSPSLKSRVTITADKSTSTAYMELSSLRSEDTAVYYCARQGYYGGEGYAVDYWGQGTLVTVSS VL: DIQLTQSPSSLSASVGDRVTITCRASQSVDFYGISFLHWYQQKPGKAPKLLIYDASNRATGIPSRFSGSGSGTDFTLTISSLQPEDFATYYCVQATQTPFTFGQGTKVEIKR ; wanted: its pEC50
Result: 8.93
